PROTOCOL_TEXT: Pharmacokinetics assay in rats (LC/MS/MS plasma concentration)
Format: in vivo, SD rats
EXPERIMENTAL_CONTEXT: intragastric 3.0 mg/kg (as free base), absolute bioavailability from AUC0-t vs vein injection
I would appreciate it if you labelled entries YES when F is 3% or higher, otherwise NO.

{"MOLECULE": "N[C@@H](CC(=O)N1CCn2c(C(F)(F)F)nc(C(=O)O)c2C1)Cc1cc(F)c(F)cc1F.O=C(O)C(O)C(O)C(=O)O [Example 12]", "CATEGORY": "YES"}
{"MOLECULE": "N[C@@H](CC(=O)N1CCn2c(C(F)(F)F)nc(C(=O)O)c2C1)Cc1cc(F)c(F)cc1F [Example 9]", "CATEGORY": "YES"}
{"MOLECULE": "N[C@@H](CC(=O)N1CCn2c(C(F)(F)F)nc(C(=O)[O-])c2C1)Cc1cc(F)c(F)cc1F.[Na+] [Example 4]", "CATEGORY": "NO"}
{"MOLECULE": "Cl.N[C@@H](CC(=O)N1CCn2c(C(F)(F)F)nc(C(=O)O)c2C1)Cc1cc(F)c(F)cc1F [Example 1]", "CATEGORY": "NO"}

Now consider a different molecule.
Say whether N[C@@H](CC(=O)N1CCn2c(C(F)(F)F)nc(C(=O)O)c2C1)Cc1cc(F)c(F)cc1F [Example 3] shows F of 3% or more.
NO

###

PROTOCOL_TEXT: Pharmacokinetics assay in rats (LC/MS/MS plasma concentration)
Type: in vivo, SD rats
EXPERIMENTAL_CONTEXT: both sexes, SD, rat, plasma, po, 3 mg/kg, intragastric 3.0 mg/kg, read-out: AUC0-t
PROPERTY: AUC(0-t) (ng·h/mL)
All answers are understood in ng·h/mL, so give the number only.

Below, each entry is followed by its recorded AUC(0-t) result.
{"COMPOUND": "N[C@@H](CC(=O)N1CCn2c(C(F)(F)F)nc(C(=O)O)c2C1)Cc1cc(F)c(F)cc1F.O=C(O)C[C@H](O)C(=O)O [Example 11]", "AUC(0-t), ng·h/mL": 69.5}
{"COMPOUND": "Cl.N[C@@H](CC(=O)N1CCn2c(C(F)(F)F)nc(C(=O)O)c2C1)Cc1cc(F)c(F)cc1F [Example 1]", "AUC(0-t), ng·h/mL": 66.6}
{"COMPOUND": "N[C@@H](CC(=O)N1CCn2c(C(F)(F)F)nc(C(=O)O)c2C1)Cc1cc(F)c(F)cc1F.O=C(O)C(O)C(O)C(=O)O [Example 12]", "AUC(0-t), ng·h/mL": 74.6}

// N[C@@H](CC(=O)N1CCn2c(C(F)(F)F)nc(C(=O)[O-])c2C1)Cc1cc(F)c(F)cc1F.[Na+] [Example 4] : AUC(0-t) value = 66.6

###

PROTOCOL_TEXT: Pharmacokinetics assay in rats (LC/MS/MS plasma concentration)
Assay type: in vivo, SD rats
EXPERIMENTAL_CONTEXT: both sexes, SD, rat, plasma, po, 3 mg/kg, intragastric 3.0 mg/kg, read-out: CL/F (converted)
PROPERTY: CL/F (mL/min/kg)
Numbers only; they are read as mL/min/kg.

{"COMPOUND": "Cl.N[C@@H](CC(=O)N1CCn2c(C(F)(F)F)nc(C(=O)O)c2C1)Cc1cc(F)c(F)cc1F [Example 1]", "CL/F, mL/min/kg": 760}
{"COMPOUND": "N[C@@H](CC(=O)N1CCn2c(C(F)(F)F)nc(C(=O)[O-])c2C1)Cc1cc(F)c(F)cc1F.[Na+] [Example 4]", "CL/F, mL/min/kg": 728}
{"COMPOUND": "N[C@@H](CC(=O)N1CCn2c(C(F)(F)F)nc(C(=O)O)c2C1)Cc1cc(F)c(F)cc1F.O=C(O)C(O)C(O)C(=O)O [Example 12]", "CL/F, mL/min/kg": 672}

# compound N[C@@H](CC(=O)N1CCn2c(C(F)(F)F)nc(C(=O)O)c2C1)Cc1cc(F)c(F)cc1F.O=C(O)C[C@H](O)C(=O)O [Example 11] ; its CL/F = 777

Source: patent US8518946B2
